# measurement_protocol: Half life in Sprague-Dawley rat at 1 mg/kg, iv and 2 mg/kg, po
# Type: ADME, organism-based
# measurement_parameters: in vivo
readout_type: half-life
Just the number plus its unit, please.

Cc1ncn(-c2ccc(Nc3cc(-c4nocc4-c4cn[nH]c4C)ccn3)cc2)n1	1.8 h

# context switch: different compound, same half-life
compound `Cc1ncn(-c2ccc(Nc3cc(-c4nocc4-c4cnn(C)c4)ccn3)cc2)n1` , half-life observed: 1.5 h

====

Item-by-item account of AUC
# measurement_protocol: AUC in Sprague-Dawley rat at 2 mg/kg, po
# Format: ADME, organism-based
# Parameters: dose 2 mg/kg, route oral
# measurement_parameters: plasma

Cc1ncn(-c2ccc(Nc3cc(-c4nocc4-c4cn[nH]c4C)ccn3)cc2)n1	0.7 µM·h

Okay, next one:
The reported value for `Cc1ncn(-c2ccc(Nc3cc(-c4nocc4-c4cnn(C)c4)ccn3)cc2)n1` in terms of AUC is 5 µM·h

====

Collected Vd values appear next to each entry.
# measurement_protocol: Volume of distribution in Sprague-Dawley rat at 1 mg/kg, iv and 2 mg/kg, po
# Type: ADME, organism-based
# measurement_parameters: in vivo
Use L/kg as the unit, but write only the number.

Cc1ncn(-c2ccc(Nc3cc(-c4nocc4-c4cnn(C)c4)ccn3)cc2)n1	0.4

Let's switch to this molecule now.
Item: `Cc1ncn(-c2ccc(Nc3cc(-c4nocc4-c4cn[nH]c4C)ccn3)cc2)n1` | Vd: 0.4
